system: PC-3M; test: MTT cytotoxic activity assay, PC-3M; type: cell-based; conditions: Homo sapiens, read-out: IC50 PC-3M, 48 h
pIC50: −log10 of the molar value.

compound	subjectOfTest	relation	pIC50
CC(C)(C)OC(=O)N[C@@H](Cc1ccccc1Br)C(=O)Oc1ccc(C(=O)/C=C/c2ccc(OC(=O)[C@@H](Cc3ccccc3Br)NC(=O)OC(C)(C)C)cc2)c(O)c1 [Compound 14]	PC-3M	<	3.70
CC(C)(C)OC(=O)N[C@H](Cc1ccccc1Br)C(=O)Oc1ccc(/C=C/C(=O)c2ccc(O)cc2O)cc1 [Compound 15]	PC-3M	=	4.52
CC(C)(C)OC(=O)NC(C(=O)Oc1ccc(/C=C/C(=O)c2ccc(O)cc2O)cc1)C1CCCC1 (centres unmarked) [Compound 7]	PC-3M	=	4.48
CCC(C)CC(NC(=O)OC(C)(C)C)C(=O)Oc1ccc(/C=C/C(=O)c2ccc(OC(=O)C(CC(C)CC)NC(=O)OC(C)(C)C)cc2O)cc1 (centres unmarked) [Compound 2]	PC-3M	<	3.70
CC(C)(C)OC(=O)NC(C(=O)Oc1ccc(/C=C/C(=O)c2ccc(OC(=O)C(NC(=O)OC(C)(C)C)c3ccccc3)cc2O)cc1)c1ccccc1 (centres unmarked) [Compound 18]	PC-3M	<	3.70
CC(C)(C)OC(=O)NC(C(=O)Oc1ccc(/C=C/C(=O)c2ccc(O)cc2O)cc1)c1ccccc1 (centres unmarked) [Compound 19]	PC-3M	=	3.96
CC(C)(C)OC(=O)NC(CCc1ccccc1)C(=O)Oc1ccc(C(=O)/C=C/c2ccc(OC(=O)[C@H](CCc3ccccc3)NC(=O)OC(C)(C)C)cc2)c(O)c1 (some centres unmarked) [Compound 12]	PC-3M	<	3.70
CC(C)(C)OC(=O)NC(Cc1ccccc1)C(=O)Oc1ccc(/C=C/C(=O)c2ccc(O)cc2O)cc1 (centres unmarked) [Compound 21]	PC-3M	=	4.06
